assayed system: T1, glucagon receptor (UniProt P47871 26-477, limits assumed)
T1 construct: whole, on cells; also called GR; Glucagon
T1 sequence (P47871 26-477 limits assumed): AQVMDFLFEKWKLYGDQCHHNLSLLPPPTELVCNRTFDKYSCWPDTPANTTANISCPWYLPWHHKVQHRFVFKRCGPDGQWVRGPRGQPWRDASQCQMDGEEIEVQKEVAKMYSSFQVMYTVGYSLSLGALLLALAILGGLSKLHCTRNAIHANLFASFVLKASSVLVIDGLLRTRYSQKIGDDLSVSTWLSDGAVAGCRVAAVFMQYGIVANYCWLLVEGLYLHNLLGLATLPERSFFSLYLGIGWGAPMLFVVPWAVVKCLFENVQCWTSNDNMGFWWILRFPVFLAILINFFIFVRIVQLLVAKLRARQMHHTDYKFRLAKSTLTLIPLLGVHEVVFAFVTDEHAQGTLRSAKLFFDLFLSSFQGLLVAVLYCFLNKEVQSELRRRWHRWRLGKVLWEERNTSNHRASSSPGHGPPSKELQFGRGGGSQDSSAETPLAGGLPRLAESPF
measurement description: receptor binding, method not described
pIC50: −log10 of the molar value. Ends that are not written are not given here.
measure: pIC50

[[record]]
binder = "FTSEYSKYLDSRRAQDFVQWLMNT-NH2 (also called [E^9]Glucagon(aa6-29)-NH2; peptide no) [[Glu^9]Glucagon(aa6-29)-NH2]"
assay_value = 7.44

